The measured values listed here are drawn from ChEMBL document CHEMBL5625239.

assay: Acute toxicity in ip dosed mouse assessed as lethal dose; type: organism-based; conditions: in vivo
endpoint: LD50

Recorded result, `NS(=O)(=O)c1ccc(-n2nc(-c3ccc(C(F)(F)F)cc3O)nc2-c2ccccc2O)cc1` , LD50: > 1000 mg/kg

----------
IC50 overview
target: Prostaglandin G/H synthase 1 (Ovis aries); test: Inhibition of ovine COX-1 using arachidonic acid as substrate preincubated with compound for 5 mins followed by substrate addition and measured after 2 mins by enzyme immunoassay
Sequence (P05979 whole entry): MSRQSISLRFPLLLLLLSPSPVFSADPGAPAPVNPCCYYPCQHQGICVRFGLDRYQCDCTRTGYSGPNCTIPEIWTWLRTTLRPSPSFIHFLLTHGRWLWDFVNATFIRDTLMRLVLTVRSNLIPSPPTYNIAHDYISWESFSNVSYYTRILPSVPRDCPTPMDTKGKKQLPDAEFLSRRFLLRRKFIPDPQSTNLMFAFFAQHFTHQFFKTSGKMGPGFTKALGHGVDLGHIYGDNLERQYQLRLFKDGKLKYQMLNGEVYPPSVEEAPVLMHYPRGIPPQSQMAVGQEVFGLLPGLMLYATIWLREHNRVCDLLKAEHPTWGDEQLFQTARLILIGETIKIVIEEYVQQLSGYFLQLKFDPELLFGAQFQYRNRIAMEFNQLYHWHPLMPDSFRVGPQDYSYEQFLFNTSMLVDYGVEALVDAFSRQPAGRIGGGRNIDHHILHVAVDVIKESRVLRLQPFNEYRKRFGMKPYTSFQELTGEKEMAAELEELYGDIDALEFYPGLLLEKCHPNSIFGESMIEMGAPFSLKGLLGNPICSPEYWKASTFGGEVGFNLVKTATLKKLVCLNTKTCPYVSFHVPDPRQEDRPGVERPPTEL
Please respond with the number in µM and leave the unit unwritten.

Consider the reported IC50 for these molecules:
{"smiles text": "NS(=O)(=O)c1ccc(-n2nc(-c3ccc(C(F)(F)F)cc3)nc2-c2ccccc2O)cc1", "assayed system": "Prostaglandin G/H synthase 1 (Ovis aries)", "unit descriptor": "µM", "IC50": 43.4}
{"smiles text": "CS(=O)(=O)c1ccc(-n2nc(-c3ccc(C(F)(F)F)cc3O)nc2-c2ccccc2O)cc1", "assayed system": "Prostaglandin G/H synthase 1 (Ovis aries)", "unit descriptor": "µM", "IC50": 82.1}

IC50 of `NS(=O)(=O)c1ccc(-n2nc(-c3ccccc3O)nc2-c2ccccc2O)cc1` , assay on Prostaglandin G/H synthase 1 (Ovis aries), is 39.2

IC50 of `NS(=O)(=O)c1ccc(-n2nc(-c3ccc(C(F)(F)F)cc3O)nc2-c2ccccc2O)cc1` , assay on Prostaglandin G/H synthase 1 (Ovis aries), is 86.5

----------
system: RAW264.7; assay: Cytotoxicity against mouse RAW264.7 cells assessed as reduction in cell viability at 5 uM incubated for 24 hrs by MTT assay; type: toxicity, cell-based; conditions: raw264.7, 24 h
endpoint: Activity

{"smiles text": "Cc1ccc(-c2nc(-c3ccccc3O)n(-c3ccc(S(N)(=O)=O)cc3)n2)c(O)c1", "endpoint": "Activity", "endpoint value": "Non-Toxic"}
{"smiles text": "NS(=O)(=O)c1ccc(-n2nc(-c3ccccc3)nc2-c2ccccc2O)cc1", "endpoint": "Activity", "endpoint value": "Non-Toxic"}
{"smiles text": "NS(=O)(=O)c1ccc(-n2nc(-c3ccc(C(F)(F)F)cc3O)nc2-c2ccccc2O)cc1", "endpoint": "Activity", "endpoint value": "Non-Toxic"}
{"smiles text": "NS(=O)(=O)c1ccc(-n2nc(-c3ccccc3O)nc2-c2ccccc2O)cc1", "endpoint": "Activity", "endpoint value": "Non-Toxic"}
{"smiles text": "NS(=O)(=O)c1ccc(-n2nc(-c3ccc(F)cc3)nc2-c2ccccc2O)cc1", "endpoint": "Activity", "endpoint value": "Non-Toxic"}

Activity of `NS(=O)(=O)c1ccc(-n2nc(-c3ccc(C(F)(F)F)cc3)nc2-c2ccccc2O)cc1` , assay on RAW264.7, is Non-Toxic

Activity of `Cc1ccc(-c2cc(C(F)(F)F)nn2-c2ccc(S(N)(=O)=O)cc2)cc1` , assay on RAW264.7, is Non-Toxic

Activity of `CS(=O)(=O)c1ccc(-n2nc(-c3ccc(C(F)(F)F)cc3O)nc2-c2ccccc2O)cc1` , assay on RAW264.7, is Non-Toxic

Activity of `NS(=O)(=O)c1ccc(-n2nc(-c3ccc(F)cc3O)nc2-c2ccc(F)cc2O)cc1` , assay on RAW264.7, is Non-Toxic
